These measurements were taken from paper PMC3412150.

TARGET OR SYSTEM: Nav1.8 (SCN10A) (Homo sapiens, UniProt Q9Y5Y9)
Sequence (Q9Y5Y9 whole entry): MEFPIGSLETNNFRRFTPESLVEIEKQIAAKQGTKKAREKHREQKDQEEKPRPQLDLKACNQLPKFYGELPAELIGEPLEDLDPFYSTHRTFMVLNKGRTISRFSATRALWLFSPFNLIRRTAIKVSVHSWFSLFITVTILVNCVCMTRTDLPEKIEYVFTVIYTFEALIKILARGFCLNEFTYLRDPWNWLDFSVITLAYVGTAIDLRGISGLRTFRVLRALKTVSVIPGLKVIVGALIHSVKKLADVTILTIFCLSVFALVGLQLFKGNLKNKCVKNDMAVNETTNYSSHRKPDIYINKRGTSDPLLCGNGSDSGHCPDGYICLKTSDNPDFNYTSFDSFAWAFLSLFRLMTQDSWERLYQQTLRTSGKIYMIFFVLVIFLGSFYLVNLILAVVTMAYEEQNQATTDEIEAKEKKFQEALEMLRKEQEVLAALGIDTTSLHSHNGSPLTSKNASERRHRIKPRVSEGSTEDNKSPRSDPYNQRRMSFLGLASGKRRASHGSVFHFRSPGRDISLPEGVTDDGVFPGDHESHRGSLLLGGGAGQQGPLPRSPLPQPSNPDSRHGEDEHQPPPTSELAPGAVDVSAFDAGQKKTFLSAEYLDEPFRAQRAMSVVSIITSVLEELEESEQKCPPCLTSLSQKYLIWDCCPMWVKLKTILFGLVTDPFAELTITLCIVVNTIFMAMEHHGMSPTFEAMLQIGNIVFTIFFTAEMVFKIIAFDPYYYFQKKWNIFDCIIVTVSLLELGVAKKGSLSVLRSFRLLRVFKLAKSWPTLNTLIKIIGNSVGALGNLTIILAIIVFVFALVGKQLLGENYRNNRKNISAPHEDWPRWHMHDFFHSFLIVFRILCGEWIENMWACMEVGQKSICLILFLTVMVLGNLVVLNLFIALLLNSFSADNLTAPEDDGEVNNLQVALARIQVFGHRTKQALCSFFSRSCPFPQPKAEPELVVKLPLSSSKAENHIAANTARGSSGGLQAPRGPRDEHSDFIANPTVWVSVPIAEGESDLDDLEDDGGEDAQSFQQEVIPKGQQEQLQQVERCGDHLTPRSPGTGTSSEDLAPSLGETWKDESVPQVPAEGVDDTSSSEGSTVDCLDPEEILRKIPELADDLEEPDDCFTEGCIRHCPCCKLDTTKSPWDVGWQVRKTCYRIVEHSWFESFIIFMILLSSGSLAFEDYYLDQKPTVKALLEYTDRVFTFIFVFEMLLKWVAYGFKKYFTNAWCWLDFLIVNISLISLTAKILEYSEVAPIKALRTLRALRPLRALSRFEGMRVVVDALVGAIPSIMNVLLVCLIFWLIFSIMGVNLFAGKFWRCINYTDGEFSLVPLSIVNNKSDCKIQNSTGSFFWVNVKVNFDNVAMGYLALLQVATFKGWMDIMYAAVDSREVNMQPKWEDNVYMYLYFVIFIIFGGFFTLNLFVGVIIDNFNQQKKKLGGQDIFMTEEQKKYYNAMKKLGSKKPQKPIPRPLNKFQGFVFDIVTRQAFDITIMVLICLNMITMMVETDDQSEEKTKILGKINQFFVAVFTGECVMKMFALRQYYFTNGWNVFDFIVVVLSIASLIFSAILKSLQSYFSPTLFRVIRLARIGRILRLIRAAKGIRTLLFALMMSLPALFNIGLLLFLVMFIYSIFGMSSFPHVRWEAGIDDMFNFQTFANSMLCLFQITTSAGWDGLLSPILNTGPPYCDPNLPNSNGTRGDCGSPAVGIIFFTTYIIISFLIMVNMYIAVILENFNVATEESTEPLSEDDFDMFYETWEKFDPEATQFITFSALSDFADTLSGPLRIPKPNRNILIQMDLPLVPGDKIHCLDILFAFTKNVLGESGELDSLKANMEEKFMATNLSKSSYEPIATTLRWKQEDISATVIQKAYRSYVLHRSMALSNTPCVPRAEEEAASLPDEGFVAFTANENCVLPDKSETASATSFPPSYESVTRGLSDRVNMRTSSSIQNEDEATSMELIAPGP
ASSAY COMMENT: whole-cell voltage clamp, transfected ND7/[…] cells
Format: cell-based
MEASUREMENT LABEL: IC50

q: Fill in the blank: the reported IC50 of `COc1cc(NC(=O)c2ccc(-c3ccc(Cl)cc3)o2)cc(OC)c1` is ____.
a: ~10 nM
